# Tested on: Digitaria sanguinalis (DIGSA)
# TEST METHOD NOTES: Post-emergence efficacy, glasshouse spray test
# Assay type: in vivo
# MEASUREMENT PARAMETERS: Digitaria sanguinalis, post-emergence, 312 h; Application Rate 500 g/Ha; evaluated after 13 days; read-out: Control of weed species after post-emergence application, DIGSA (100=total damage to plant; 0=no damage to plant)
MEASUREMENT LABEL: pest or weed control at 500 g/ha (%)
The response must be a number in % with no trailing unit.

Data request: Which value of pest or weed control at 500 g/ha has been reported for Cn1nc(-c2cc[n+](CCS(=O)(=O)[O-])nc2)cc1C(F)(F)F in the records?
Data returned: 30

Data request: Which value of pest or weed control at 500 g/ha has been reported for COc1cc(-c2cc[n+](CCC(=O)O)nc2)sn1 in the records?
Data returned: 70

Data request: Which value of pest or weed control at 500 g/ha has been reported for O=C(O)CCC[n+]1ccc(-c2nccs2)cn1 in the records?
Data returned: 90

Data request: Which value of pest or weed control at 500 g/ha has been reported for Cc1coc(-c2cc[n+](CC(=O)O)nc2)n1 in the records?
Data returned: 90

Data request: Which value of pest or weed control at 500 g/ha has been reported for COC(=O)C[n+]1ccc(-c2nc(C)co2)cn1 in the records?
Data returned: 20

Measured values drawn from patent US20210053957A1 for this set.
